- Study Target: hEXO1, Isoform1 (Homo sapiens (Human), UniProt Q9UQ84)
- Sequence (Q9UQ84 whole entry, canonical isoform): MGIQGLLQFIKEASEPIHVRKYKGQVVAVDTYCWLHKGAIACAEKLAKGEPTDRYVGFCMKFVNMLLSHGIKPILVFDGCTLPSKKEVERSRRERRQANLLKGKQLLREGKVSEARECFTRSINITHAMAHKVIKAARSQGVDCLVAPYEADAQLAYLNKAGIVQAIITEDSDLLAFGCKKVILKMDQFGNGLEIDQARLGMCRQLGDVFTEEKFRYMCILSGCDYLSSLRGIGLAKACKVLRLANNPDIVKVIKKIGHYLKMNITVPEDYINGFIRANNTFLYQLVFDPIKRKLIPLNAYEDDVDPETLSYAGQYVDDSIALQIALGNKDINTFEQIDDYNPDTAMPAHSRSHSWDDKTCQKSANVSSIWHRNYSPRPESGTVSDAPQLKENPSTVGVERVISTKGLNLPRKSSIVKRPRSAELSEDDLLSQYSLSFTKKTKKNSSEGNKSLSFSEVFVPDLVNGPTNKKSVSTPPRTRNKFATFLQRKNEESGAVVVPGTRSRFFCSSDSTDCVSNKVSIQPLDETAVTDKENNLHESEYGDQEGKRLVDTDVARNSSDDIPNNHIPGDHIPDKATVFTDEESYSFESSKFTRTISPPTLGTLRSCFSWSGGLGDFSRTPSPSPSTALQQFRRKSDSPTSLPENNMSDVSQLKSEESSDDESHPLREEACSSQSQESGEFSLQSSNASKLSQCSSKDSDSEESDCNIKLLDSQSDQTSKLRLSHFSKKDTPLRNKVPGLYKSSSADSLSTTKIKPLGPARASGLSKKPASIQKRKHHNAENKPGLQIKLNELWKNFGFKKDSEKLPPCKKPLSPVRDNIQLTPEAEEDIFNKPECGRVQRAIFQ
- Protocol Notes: Enzymatic IC50 assay, FAM-labeled DNA oligomer substrate, fluorescence intensity (EXO1)
- Condition Summary: hEXO1 6 nM, substrate 30 nM, reaction time 60 minutes, 23° C.
pIC50: −log10 of the molar value.
Measure Name: pIC50

In [3]: df
Out[3]:
                              smiles_string  measure_name  recorded_measurement
0  CC(=O)N1CCC(Cn2c(=O)c(O)c(C(=O)O)c3sccc32)CC1         pIC50          5.00 to 5.65
1  O=C(O)c1c(O)c(=O)n(Cc2cnn(Cc3cn4ccncc4n3)c2)c2ccsc12         pIC50          5.65 to 6.12
2  O=C(O)c1c(O)c(=O)n(Cc2nnc(-c3ccccc3)o2)c2ccsc12         pIC50          5.00 to 5.65
3  O=C(O)c1c(O)c(=O)n(Cc2cnn(Cc3ccc4nonc4c3)c2)c2ccsc12         pIC50          5.65 to 6.12
4  O=C(O)c1c(O)c(=O)n(Cc2cccc3nonc23)c2ccsc12         pIC50          5.00 to 5.65
5  O=C(O)Cn1cc(Cn2c(=O)c(O)c(C(=O)O)c3sccc32)cn1         pIC50          5.00 to 5.65
6  O=C(O)c1c(O)c(=O)n(Cc2cnc3c(Br)cccn23)c2ccsc12         pIC50          6.12 to 6.60
7  N#Cc1cccc(Cn2cc(Cn3c(=O)c(O)c(C(=O)O)c4sccc43)cn2)c1         pIC50          5.00 to 5.65
8  O=C(O)c1c(O)c(=O)n(Cc2cnc(-c3cccc4ncccc34)s2)c2ccsc12         pIC50          5.65 to 6.12

----------
System: hXPG (Homo sapiens (Human)) | Read-out: pIC50
Sequence (P28715 whole entry): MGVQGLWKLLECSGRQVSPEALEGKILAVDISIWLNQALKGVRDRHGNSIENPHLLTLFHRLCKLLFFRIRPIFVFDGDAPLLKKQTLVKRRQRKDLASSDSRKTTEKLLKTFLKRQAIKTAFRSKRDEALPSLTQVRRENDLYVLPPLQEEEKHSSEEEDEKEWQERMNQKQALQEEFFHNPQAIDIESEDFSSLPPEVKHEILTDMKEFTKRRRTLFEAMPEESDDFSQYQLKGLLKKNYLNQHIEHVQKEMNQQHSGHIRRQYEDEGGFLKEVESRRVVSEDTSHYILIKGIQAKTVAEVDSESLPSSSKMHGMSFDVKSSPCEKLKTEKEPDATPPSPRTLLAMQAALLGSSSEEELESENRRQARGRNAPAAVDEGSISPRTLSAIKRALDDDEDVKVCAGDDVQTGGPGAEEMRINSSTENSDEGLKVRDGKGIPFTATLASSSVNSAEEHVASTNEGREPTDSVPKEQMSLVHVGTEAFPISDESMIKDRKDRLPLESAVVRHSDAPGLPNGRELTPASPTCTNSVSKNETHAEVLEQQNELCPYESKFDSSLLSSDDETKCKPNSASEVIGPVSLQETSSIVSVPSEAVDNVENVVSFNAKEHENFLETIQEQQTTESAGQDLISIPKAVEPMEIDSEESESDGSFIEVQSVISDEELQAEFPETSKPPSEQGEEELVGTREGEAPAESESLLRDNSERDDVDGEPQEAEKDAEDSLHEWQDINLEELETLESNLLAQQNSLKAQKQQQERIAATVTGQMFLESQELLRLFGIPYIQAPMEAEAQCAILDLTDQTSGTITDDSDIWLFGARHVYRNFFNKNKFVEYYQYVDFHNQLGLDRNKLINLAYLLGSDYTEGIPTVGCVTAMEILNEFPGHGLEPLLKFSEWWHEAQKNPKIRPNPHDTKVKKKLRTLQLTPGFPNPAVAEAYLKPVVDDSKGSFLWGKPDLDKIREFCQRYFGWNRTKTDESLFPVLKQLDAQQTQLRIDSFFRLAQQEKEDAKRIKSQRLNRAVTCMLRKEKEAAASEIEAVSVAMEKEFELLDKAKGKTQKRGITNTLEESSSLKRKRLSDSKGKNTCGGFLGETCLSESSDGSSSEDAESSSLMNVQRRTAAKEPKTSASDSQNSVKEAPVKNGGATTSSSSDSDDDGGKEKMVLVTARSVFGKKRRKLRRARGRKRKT
pIC50: −log10 of the molar value.
Measure Name: pIC50

                              smiles_string                 study_target  recorded_measurement
0  CS(=O)(=O)Nc1ccc(-n2cc(Cn3c(=O)c(O)c(C(=O)O)c4sccc43)cn2)cc1  hXPG (Homo sapiens (Human))          6.12 to 6.60
1   Cn1cc(Cn2c(=O)c(O)c(C(=O)O)c3sccc32)cn1  hXPG (Homo sapiens (Human))          5.00 to 5.65
2  O=C(O)c1c(O)c(=O)n(Cc2cn(-c3ccccc3)nn2)c2ccsc12  hXPG (Homo sapiens (Human))          5.65 to 6.12
3  CS(=O)(=O)c1cccc(Cn2c(=O)c(O)c(C(=O)O)c3sccc32)c1  hXPG (Homo sapiens (Human))          5.00 to 5.65
4  O=C(O)c1c(O)c(=O)n(Cc2cnn(CC(=O)N3CC[C@H](O)C3)c2)c2ccsc12  hXPG (Homo sapiens (Human))                < 5.00
5  O=C(O)c1c(O)c(=O)n(Cc2nc(-c3ccccc3)no2)c2ccsc12  hXPG (Homo sapiens (Human))          5.65 to 6.12
6  Cn1cc(Cn2cc(Cn3c(=O)c(O)c(C(=O)O)c4sccc43)cn2)cn1  hXPG (Homo sapiens (Human))          5.00 to 5.65
7  COc1ccc(Cn2c(=O)c(O)c(C(=O)O)c3sc(C4CC4)cc32)cc1  hXPG (Homo sapiens (Human))          5.00 to 5.65
8   O=C(O)c1c(O)c(=O)n(Cc2cnc[nH]2)c2ccsc12  hXPG (Homo sapiens (Human))                < 5.00

----------
pIC50: −log10 of the molar value.
System: hFEN1 (Homo sapiens (Human), UniProt P39748) | Read-out: pIC50
Sequence (P39748 whole entry): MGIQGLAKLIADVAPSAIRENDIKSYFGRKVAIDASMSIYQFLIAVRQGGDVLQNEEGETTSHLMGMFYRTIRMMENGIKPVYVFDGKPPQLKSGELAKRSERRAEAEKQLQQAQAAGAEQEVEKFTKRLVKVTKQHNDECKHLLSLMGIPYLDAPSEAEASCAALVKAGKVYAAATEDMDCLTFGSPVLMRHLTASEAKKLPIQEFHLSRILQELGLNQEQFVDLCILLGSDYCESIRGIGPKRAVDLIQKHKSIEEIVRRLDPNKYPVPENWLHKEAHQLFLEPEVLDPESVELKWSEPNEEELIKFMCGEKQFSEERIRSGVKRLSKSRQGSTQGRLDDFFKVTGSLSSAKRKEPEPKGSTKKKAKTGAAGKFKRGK
Measure Name: pIC50

>>> df
                                    compound                              study_target  measure_name  recorded_measurement
 0  O=C(O)c1c(O)c(=O)n(Cc2cnn(Cc3ncc4ccccn34)c2)c2ccsc12  hFEN1 (Homo sapiens (Human), UniProt P39748)         pIC50                > 6.70
 1  O=C(O)c1c(O)c(=O)n(CC2CCCOC2)c2ccsc12 (stereo not drawn)  hFEN1 (Homo sapiens (Human), UniProt P39748)         pIC50          5.00 to 5.65
 2  O=C(O)c1c(O)c(=O)n(Cc2ccc(OC(F)F)cc2)c2ccsc12  hFEN1 (Homo sapiens (Human), UniProt P39748)         pIC50                > 6.70
 3  COc1ccccc1-n1cc(Cn2c(=O)c(O)c(C(=O)O)c3sccc32)cn1  hFEN1 (Homo sapiens (Human), UniProt P39748)         pIC50                > 6.70
 4   COc1ccccc1Cn1c(=O)c(O)c(C(=O)O)c2sccc21  hFEN1 (Homo sapiens (Human), UniProt P39748)         pIC50          5.00 to 5.65
 5  N#Cc1ccc(Cn2cc(Cn3c(=O)c(O)c(C(=O)O)c4sccc43)cn2)cc1  hFEN1 (Homo sapiens (Human), UniProt P39748)         pIC50                > 6.70
 6   Cc1cc(Cn2c(=O)c(O)c(C(=O)O)c3sccc32)no1  hFEN1 (Homo sapiens (Human), UniProt P39748)         pIC50          5.65 to 6.12
 7  O=C(O)c1c(O)c(=O)n(Cc2cnc3ccccc3c2)c2ccsc12  hFEN1 (Homo sapiens (Human), UniProt P39748)         pIC50          6.12 to 6.60
 8  CS(=O)(=O)c1ccc(Cn2cc(Cn3c(=O)c(O)c(C(=O)O)c4sccc43)cn2)cc1  hFEN1 (Homo sapiens (Human), UniProt P39748)         pIC50                > 6.70
 9  CCOC(=O)c1c(O)c(=O)n(Cc2ccc(N)cc2)c2ccsc12  hFEN1 (Homo sapiens (Human), UniProt P39748)         pIC50          6.12 to 6.60
10  O=C(O)c1c(O)c(=O)n(Cc2cnn(-c3ccc([N+](=O)[O-])cc3)c2)c2ccsc12  hFEN1 (Homo sapiens (Human), UniProt P39748)         pIC50                > 6.70
11    O=C(O)c1c(O)c(=O)n(Cc2ccccc2F)c2ccsc12  hFEN1 (Homo sapiens (Human), UniProt P39748)         pIC50          5.00 to 5.65
12  CS(=O)(=O)c1cccc(Cn2c(=O)c(O)c(C(=O)O)c3sccc32)c1  hFEN1 (Homo sapiens (Human), UniProt P39748)         pIC50          5.65 to 6.12
13  O=C(O)c1c(O)c(=O)n(Cc2cccc(Br)c2)c2ccsc12  hFEN1 (Homo sapiens (Human), UniProt P39748)         pIC50          6.12 to 6.60
14  O=C(O)c1c(O)c(=O)n(Cc2cnn3ccccc23)c2ccsc12  hFEN1 (Homo sapiens (Human), UniProt P39748)         pIC50                > 6.70
15  CC(=O)Nc1cccc(Cn2c(=O)c(O)c(C(=O)O)c3sccc32)c1  hFEN1 (Homo sapiens (Human), UniProt P39748)         pIC50                > 6.70
16  O=C(O)c1c(O)c(=O)n(Cc2noc(-c3ccccc3)n2)c2ccsc12  hFEN1 (Homo sapiens (Human), UniProt P39748)         pIC50          5.65 to 6.12
17  CS(=O)(=O)Nc1ccc(Cn2c(=O)c(O)c(C(=O)O)c3sccc32)cc1  hFEN1 (Homo sapiens (Human), UniProt P39748)         pIC50                > 6.70

----------
pIC50 values for the compounds below.
- Study Target: hEXO1, Isoform1 (Homo sapiens (Human), UniProt Q9UQ84)
- Protocol Notes: Enzymatic IC50 assay, FAM-labeled DNA oligomer substrate, fluorescence intensity (EXO1)
- Condition Summary: hEXO1 6 nM, substrate 30 nM, reaction time 60 minutes, 23° C.
pIC50: −log10 of the molar value.
Measure Name: pIC50

>>> df
                              smiles_string  measure_name  recorded_measurement
0  COc1ccc(Cn2c(=O)c(O)c(C(=O)O)c3sc(C4CC4)cc32)cc1         pIC50          6.12 to 6.60
1  CC(=O)Nc1cccc(-c2cccc(Cn3c(=O)c(O)c(C(=O)O)c4sccc43)c2)c1         pIC50          5.00 to 5.65
2  O=C(O)c1c(O)c(=O)n(Cc2ccc3[nH]cnc3c2)c2ccsc12         pIC50          5.65 to 6.12
